Target: Prostaglandin G/H synthase 2 (Homo sapiens)
Sequence (P35354 whole entry): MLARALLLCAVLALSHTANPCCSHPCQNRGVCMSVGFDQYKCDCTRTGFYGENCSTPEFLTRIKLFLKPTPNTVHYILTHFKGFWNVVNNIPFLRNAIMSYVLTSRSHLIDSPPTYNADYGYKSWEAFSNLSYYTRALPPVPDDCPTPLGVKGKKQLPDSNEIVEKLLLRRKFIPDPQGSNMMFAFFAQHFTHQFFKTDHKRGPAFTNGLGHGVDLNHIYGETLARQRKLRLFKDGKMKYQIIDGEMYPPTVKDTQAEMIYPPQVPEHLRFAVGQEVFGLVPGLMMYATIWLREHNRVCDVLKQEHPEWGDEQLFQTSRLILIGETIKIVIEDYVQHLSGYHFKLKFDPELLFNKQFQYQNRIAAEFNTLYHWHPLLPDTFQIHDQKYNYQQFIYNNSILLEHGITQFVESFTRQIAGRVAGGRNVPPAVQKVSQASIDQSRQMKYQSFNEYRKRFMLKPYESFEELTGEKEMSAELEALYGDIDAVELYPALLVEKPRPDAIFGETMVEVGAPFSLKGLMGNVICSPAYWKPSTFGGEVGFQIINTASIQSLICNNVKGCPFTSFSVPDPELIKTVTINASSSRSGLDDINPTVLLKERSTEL
pIC50: −log10 of the molar value.
# merged literature set: pIC50 with Prostaglandin G/H synthase 2 (Homo sapiens)

compound: COc1ccc([C@H]2C(CN3CCN(c4ccc(OC)cc4)CC3)=NO[C@@H]3CCCC[C@H]23)cc1
inequality symbol: =
pIC50: 5.77

compound: O=C(COc1cc(O)c2c(=O)cc(-c3ccccc3)oc2c1)OCc1cc(-c2ccc(Cl)cc2)n(-c2ccccc2)n1
inequality symbol: =
pIC50: 5.85

compound: O=C(O)Cc1cnc(C(=O)c2ccc(NC(=O)c3ccc(Cl)c(Cl)c3)cc2)c2ccccc12
inequality symbol: <
pIC50: 5.00

compound: CS(=O)(=O)c1ccc(-c2ccsc2-c2ccc(F)cc2)cc1
inequality symbol: =
pIC50: 5.10

compound: CC/C(=C\c1cc(O)cc(O)c1)c1cccc(F)c1
inequality symbol: =
pIC50: 4.75

compound: Cc1ccc(C2=NN(C3=NC(=O)CS3)C(c3ccccc3C)C2)cc1C (stereo unspecified)
inequality symbol: =
pIC50: 5.20

compound: COc1ccc(Nc2nc(-c3ccc(Cl)cc3)c(C)s2)cc1
inequality symbol: <
pIC50: 5.30

compound: Cc1ccc(-n2nc(COC(=O)COc3cc(O)c4c(=O)cc(-c5ccccc5)oc4c3)cc2-c2ccc([N+](=O)[O-])cc2)cc1
inequality symbol: =
pIC50: 5.86

compound: Cc1ccc(Nc2cnccc2NS(C)(=O)=O)cc1
inequality symbol: =
pIC50: 4.92

compound: COC(=O)COc1ccc(/C=C/c2ccc([N+](=O)[O-])cc2)cc1
inequality symbol: =
pIC50: 5.13

compound: Cc1nc(-c2ccc(F)cc2)c(-c2ccc(S(C)(=O)=O)cc2)o1
inequality symbol: =
pIC50: 7.15

compound: Cc1ccc(-c2cc(C(=O)N3CCSCC3)nn2-c2ccc(S(N)(=O)=O)cc2)cc1
inequality symbol: =
pIC50: 6.05

compound: CCOC(=O)C1=Nc2c(/N=N/c3ccc(O)cc3)c(N)nn2C1=O
inequality symbol: =
pIC50: 4.10

compound: C[Si](C)(C)c1c(-c2ccc(F)cc2)noc1-c1ccc(S(N)(=O)=O)cc1
inequality symbol: =
pIC50: 4.42

compound: O=[N+]([O-])c1ccc(/C=C/c2cc(O)cc(O)c2)cc1
inequality symbol: =
pIC50: 4.50

compound: Cc1onc(-c2ccc(S(C)(=O)=O)cc2)c1-c1ccc(F)cc1
inequality symbol: =
pIC50: 7.15

compound: CS(=O)(=O)c1ccc(-c2c(-c3ccc(F)cc3)noc2Cl)cc1
inequality symbol: =
pIC50: 6.45

compound: O=C(NCCc1c[nH]c2ccccc12)c1ccccc1Nc1ccccc1Br
inequality symbol: <
pIC50: 4.40

compound: COc1ccc2ccc(F)c(CC(=O)N/N=C/c3cccc(C(F)(F)F)c3)c2n1
inequality symbol: =
pIC50: 6.89

compound: CCCCCCCCNC(=O)/C=C/c1c(/C=C/c2ccc(OC)cc2)cc(OC)cc1OC
inequality symbol: =
pIC50: 4.70

compound: Nc1cccnc1NC(=O)c1ccc(C(F)(F)F)cc1
inequality symbol: <
pIC50: 4.00
